Documented growth across a set of compounds
System: NCI-H460 lung
measurement description: NCI-60 one-dose screen, 48 h (100 = growth as untreated, 0 = no growth, -100 = all killed)
run parameters: 10 µM unless noted
Compounds without any hit were thinned out: in the full panel of roughly 83,000, 20% have a hit. Active and inactive are the calls of the source. The calls were made as follows: active = growth percent below 10; inactive = the rest.
test readout: growth

{"columns": ["compound", "experimental result"],
 "data": [
  ["O=C(c1ccc(O)cc1)C1[C@H](c2ccccc2Br)[C@@H](c2ccccc2)NC12C(=O)Nc1ccccc12 (stereo partly drawn)", "33.1% (inactive)"],
  ["COc1cc(CNC(=O)C[C@H](C)CCC=C(C)C)ccc1OCc1cn(-c2ccc(Cl)c(Cl)c2)nn1", "45.5% (inactive)"],
  ["Cc1nn(-c2ccccc2)c2ncn(CC(=O)N/N=C/c3ccccc3O)c(=O)c12", "17.7% (inactive)"],
  ["Cc1nn(-c2ccccc2)c2nc(C)n(CC(=O)N/N=C/c3cccc([N+](=O)[O-])c3)c(=O)c12", "106% (inactive)"],
  ["COc1cc2cc(C(=O)N3C[C@@H](CCl)c4c3cc(OC(=O)N(CCC(=O)N3CCN(C)CC3)[C@H]3CCSSC3)c3ccccc43)[nH]c2c(OC)c1OC", "-72.6% (active)"],
  ["Nc1cc(-c2c[nH]c3ccc(Br)cc23)nc2cc(-c3c[nH]c4ccccc34)nn12", "-53.1% (active)"],
  ["CN1CCN(c2ccc3c4c(cccc24)C(=O)N(c2cccc(-c4nn(-c5ccccc5)cc4-c4nc5ccccc5s4)c2)C3=O)CC1", "18.5% (inactive)"],
  ["COc1ccc(NC(=O)Cn2c(/C=C/c3ccc([N+](=O)[O-])cc3)nc3ccccc3c2=O)cc1", "42.3% (inactive)"],
  ["S=C(Nc1ccc(OCc2nc3ccc(Cl)cc3[nH]2)cc1)NC1CCCCC1", "-21.5% (active)"],
  ["Cn1cc(-c2cc(N)n3nc(-c4c[nH]c5ccccc45)cc3n2)c2ccccc21", "-66.6% (active)"],
  ["O=C(NNC(=O)c1ccc(OCc2nc3ccc(Cl)cc3[nH]2)cc1)Nc1ccc(Cl)c(C(F)(F)F)c1", "38.1% (inactive)"],
  ["COc1ccc([C@H]2C(C(=O)c3ccc(Cl)cc3)C3(N[C@@H]2c2ccccc2)C(=O)Nc2ccccc23)cc1 (stereo partly drawn)", "18.3% (inactive)"],
  ["COC(=O)c1cc(C(=O)C(C)(C)C)n2c3ccccc3c3ccccc3c12", "106% (inactive)"],
  ["COc1cc(NC(=O)C(C)C)ccc1C(=O)NC(=S)Nc1ccc(S(N)(=O)=O)cc1", "107% (inactive)"],
  ["O=CNc1cccc(-n2cnc3cc(-c4ccc(O)cc4)ccc32)c1", "16.7% (inactive)"],
  ["COc1ccc(CCC2NCCc3c(Br)c4c(c(OC)c32)OCO4)cc1 (stereo not drawn)", "9.1% (active)"],
  ["COc1cc(C=O)ccc1OC(=O)c1cc(-c2ccc(C)cc2)n(-c2ccc(S(C)(=O)=O)cc2)n1", "110% (inactive)"],
  ["O=C(N/N=C/c1ccsc1)c1[nH]c2ccc(Br)cc2c1-c1ccccc1", "-72.5% (active)"]
]}

* * *

Documented growth across a set of compounds
Tested on: A549/ATCC NSCLC
measurement description: NCI-60 one-dose screen, 48 h (100 = growth as untreated, 0 = no growth, -100 = all killed)
run parameters: 10 µM unless noted
Compounds without any hit were thinned out: in the full panel of roughly 83,000, 20% have a hit.

{"columns": ["compound", "system name", "unit of measurement", "growth"],
 "data": [
  ["O=C(N/N=C/c1ccc(Cl)cc1)c1ccc(OCc2nc3ccc(Cl)cc3[nH]2)cc1", "A549/ATCC NSCLC", "%", -60.1],
  ["CC1=C(C(=O)Nc2ccccc2)C(c2ccc3ccccc3c2)n2c(nc3ccccc32)N1 (stereo not given)", "A549/ATCC NSCLC", "%", 8.83],
  ["CC(C)(C)c1cc(-c2cc(-c3ccccc3)[nH]c(=O)c2C#N)cc(C(C)(C)C)c1", "A549/ATCC NSCLC", "%", 5.52],
  ["COc1ccc(-c2cc(-c3ccccc3)c(C#N)c(=O)[nH]2)cc1S(N)(=O)=O", "A549/ATCC NSCLC", "%", 98.7],
  ["COc1ccc2c(c1)C(Sc1ccc(Br)cc1)c1c(nc(N)c(C#N)c1N)O2 (stereo not given)", "A549/ATCC NSCLC", "%", 89.7]
]}

* * *

Tested on: MDA-MB-468 breast
measurement description: NCI-60 one-dose screen, 48 h
run parameters: 10 µM unless noted
This is part of a sample that, as a whole, favours compounds with a hit. Of some 83,000 tested, about 20% had one in any assay. Calls of active or inactive are those of the source. How the source made its calls: active means growth percent below 10; inactive means the rest.
Outcomes: active, inactive

{"columns": ["molecule", "discrete label"],
 "data": [
  ["O=C(NN1C(=O)/C(=C/C=C/c2ccc([N+](=O)[O-])o2)SC1=S)c1ccc(O)cc1", "active"],
  ["CCCCCCCCCCCCCCCCCC(=O)Nc1ccc(OC)cc1", "inactive"],
  ["COc1ccc(NC2=C(I)C(=O)C(C)=C(C)C2=O)cc1", "active"],
  ["O=C1Nc2cc(-c3ccc(NS(=O)(=O)c4ccc([N+](=O)[O-])cc4)cc3)ccc2/C1=C/c1ccc[nH]1", "active"],
  ["COc1sc(/C=N/NC(=O)c2[nH]c3ccc(Br)cc3c2-c2ccccc2)cc1Br", "active"],
  ["O=C1Nc2cc(-c3ccc(NS(=O)(=O)c4ccc(-c5ccccc5)cc4)cc3)ccc2/C1=C/c1ccc[nH]1", "active"],
  ["COc1ccc(-c2cc(-c3cc(OC)c(OC)c(OC)c3)[nH]c(=O)c2C#N)cc1", "inactive"],
  ["COC(=O)c1ccc(-c2c(-c3ccccc3)c(F)c3oc(C(=O)OC)c(N)c3c2-c2ccccc2)cc1", "inactive"],
  ["Cc1ccc2c(c1)nc(-c1ccccc1)n2CC(=O)N=Nc1c(O)[nH]c2ccc(Cl)cc12", "active"],
  ["CCN1C(=O)N(CC)C2NNC(Sc3c(C(=O)O)c4ccccc4n(CC(C)C)c3=O)=NC21 (stereo not drawn)", "active"],
  ["CS(=O)(=O)Nc1cccc(-n2cnc3cc(-c4ccc(O)cc4)ccc32)c1", "active"],
  ["COc1cc(NC(=O)C(C)C)ccc1C(=O)NC(=S)Nc1ccc(S(N)(=O)=O)cc1", "inactive"],
  ["c1n[nH]cc1-c1nc2ccc3[nH]ncc3c2c2c1CC1(CCOCC1)CC2", "active"]
]}

* * *

Tested on: U251 CNS
measurement description: NCI-60 one-dose screen, 48 h (100 = growth as untreated, 0 = no growth, -100 = all killed)
run parameters: 10 µM unless noted
About 83,000 compounds went through this panel and 20% of them were active in at least one assay; those are over-represented in the sample as a whole.
Recorded growth split into classes group A: < 30%; group B: ≥ 30% and < 80%; group C: ≥ 80%

{"columns": ["molecule", "discrete label"],
 "data": [
  ["CN(C)c1nc(NCCNS(=O)(=O)c2ccc(C(=O)/C=C/c3ccc(Cl)cc3)cc2)nc(N2CCOCC2)n1", "group A"],
  ["Oc1cncc(-c2ccc3ncnc(N4CCc5cc(F)c(Cl)cc54)c3c2)c1", "group B"],
  ["COC(=O)c1cc(C(=O)C(Br)Br)n2c1ccc1c3ccccc3ccc12", "group B"],
  ["ClC(Cn1ncc2c(Nc3cccc(Br)c3)nc(SCCN3CCOCC3)nc21)c1ccc(Br)cc1 (stereo not given)", "group A"],
  ["COC(=O)c1c(C(=O)OC)c2ccc3c4ccccc4ccc3n2c1C(=O)OC", "group C"],
  ["COc1cc(/C=C/C(=O)c2ccc(S(=O)(=O)NCCNc3nc(N(C)C)nc(N4CCOCC4)n3)cc2)cc(OC)c1OC", "group A"],
  ["C[C@H]1[C@@H](CC(=O)N[C@@H](Cc2coc3ccccc23)B(O)O)O[C@@H]2OC3(C)CC[C@H]4[C@H](C)CC[C@@H]1[C@@]24O3", "group A"],
  ["O=C1Nc2cc(-c3ccc(NS(=O)(=O)c4ccc(-c5ccccc5)cc4)cc3)ccc2/C1=C/c1ccc[nH]1", "group A"],
  ["O=C(COc1ccc(/C=C2/C(=O)Nc3ccc(Cl)cc32)cc1)Nc1ccc(Br)cc1", "group A"],
  ["Fc1ccc(Nc2nnc(-c3c[nH]c4ccccc34)o2)cc1", "group C"],
  ["CN(C)c1nc(NCCNS(=O)(=O)c2ccc(C3=Nc4c(N)nc(N)nc4NC(c4ccc(C(F)(F)F)cc4)C3)cc2)nc(N2CCOCC2)n1 (stereo not given)", "group A"],
  ["Cc1nn(-c2ccccc2)c2nc(C)n(C(=O)N/N=C/c3cccc([N+](=O)[O-])c3)c(=O)c12", "group C"],
  ["Clc1ccc(-c2nc3ccc(-c4nnc(SCc5ccccc5)o4)cc3[nH]2)cc1", "group A"],
  ["OCCn1cc(-c2nc3ccc4[nH]ncc4c3c3c2CCCC3)cn1", "group B"],
  ["NC(=O)c1ccc(-c2ccc3ncnc(N4CCc5cc(F)c(Cl)cc54)c3c2)cn1", "group C"],
  ["COc1ccc(C2=Nc3c(N)nc(N)nc3NC(c3ccc(Oc4nc(Nc5ccc(F)cc5)nc(N(C)C)n4)c(OC)c3)C2)cc1 (stereo not given)", "group B"],
  ["COc1ccc(-c2cc(C(=O)N=Nc3c(O)[nH]c4ccc(Cl)cc34)c3ccccc3n2)cc1OC", "group C"],
  ["Cc1ccccc1NC(=O)c1cccc(NC(=O)CCl)c1", "group A"]
]}

Values compiled from PubChem BioAssay (NCI).
